shrunken log2 fold change for assorted sequences
- Tested on: Escherichia coli TOP10;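 further: peptides expressed intracellularly from a pBAD plasmid library in pooled LB shake-flask culture, induced with 0.3% L-arabinose, DNA abundance read by NGS, three biological replicates, DESeq2 with apeglm shrinkage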
- test.details: shrunken log2 fold change of peptide-encoding DNA abundance (4.5 h post-induction vs induction); higher = less antimicrobial activity (less host growth inhibition)
- applied.conditions: time post-induction: 4.5 h; library: site-saturation at positions 5, 18, 19, 20
property.measured: shrunken log2 fold change

# construct.sequence, measured.on, numeric.value
measured = [
    ("RRIRGRPPRLPRPRPRPCQQPRP", "Escherichia coli TOP10", 0.0696),
    ("RRIRRRPPRLPRPRPRPMQHPRP", "Escherichia coli TOP10", 0.566),
    ("RRIRWRPPRLPRPRPRPDFYPRP", "Escherichia coli TOP10", -0.11),
    ("RRIRCRPPRLPRPRPRPRGGPRP", "Escherichia coli TOP10", 0.508),
    ("RRIRIRPPRLPRPRPRPLPNPRP", "Escherichia coli TOP10", -0.217),
    ("RRIRYRPPRLPRPRPRPGFDPRP", "Escherichia coli TOP10", -0.205),
    ("RRIRMRPPRLPRPRPRPHWRPRP", "Escherichia coli TOP10", 0.0569),
    ("RRIRYRPPRLPRPRPRPKFHPRP", "Escherichia coli TOP10", -1.15),
    ("RRIRVRPPRLPRPRPRPGFGPRP", "Escherichia coli TOP10", 0.408),
    ("RRIRKRPPRLPRPRPRPIFYPRP", "Escherichia coli TOP10", -0.0532),
    ("RRIRRRPPRLPRPRPRPEFSPRP", "Escherichia coli TOP10", 0.0744),
    ("RRIRIRPPRLPRPRPRPGTRPRP", "Escherichia coli TOP10", 0.0641),
    ("RRIRERPPRLPRPRPRPPAEPRP", "Escherichia coli TOP10", 0.758),
    ("RRIRYRPPRLPRPRPRPLVHPRP", "Escherichia coli TOP10", 0.0162),
    ("RRIRNRPPRLPRPRPRPEPMPRP", "Escherichia coli TOP10", 0.132),
    ("RRIRFRPPRLPRPRPRPVGHPRP", "Escherichia coli TOP10", -0.0219),
    ("RRIRGRPPRLPRPRPRPIKLPRP", "Escherichia coli TOP10", 0.125),
    ("RRIRMRPPRLPRPRPRPHCNPRP", "Escherichia coli TOP10", 0.043),
    ("RRIRARPPRLPRPRPRPITRPRP", "Escherichia coli TOP10", 0.00663),
    ("RRIRSRPPRLPRPRPRPSWHPRP", "Escherichia coli TOP10", -0.206),
    ("RRIRMRPPRLPRPRPRPHAGPRP", "Escherichia coli TOP10", 0.222),
    ("RRIRYRPPRLPRPRPRPTQPPRP", "Escherichia coli TOP10", 0.409),
    ("RRIRDRPPRLPRPRPRPSACPRP", "Escherichia coli TOP10", 0.294),
    ("RRIRPRPPRLPRPRPRPGAPPRP", "Escherichia coli TOP10", 0.536),
    ("RRIRNRPPRLPRPRPRPHEPPRP", "Escherichia coli TOP10", 0.247),
    ("RRIRCRPPRLPRPRPRPKWQPRP", "Escherichia coli TOP10", 0.0444),
    ("RRIRIRPPRLPRPRPRPKCWPRP", "Escherichia coli TOP10", 0.139),
    ("RRIRSRPPRLPRPRPRPFDWPRP", "Escherichia coli TOP10", -0.0461),
    ("RRIRTRPPRLPRPRPRPPCQPRP", "Escherichia coli TOP10", -0.215),
    ("RRIRSRPPRLPRPRPRPVETPRP", "Escherichia coli TOP10", 0.00492),
    ("RRIRLRPPRLPRPRPRPLGGPRP", "Escherichia coli TOP10", 0.157),
    ("RRIRPRPPRLPRPRPRPDFQPRP", "Escherichia coli TOP10", 0.262),
    ("RRIRSRPPRLPRPRPRPDQYPRP", "Escherichia coli TOP10", -2.18),
    ("RRIRHRPPRLPRPRPRPVLQPRP", "Escherichia coli TOP10", -0.169),
    ("RRIRCRPPRLPRPRPRPHLWPRP", "Escherichia coli TOP10", 0.129),
    ("RRIRKRPPRLPRPRPRPMQNPRP", "Escherichia coli TOP10", 0.282),
    ("RRIRCRPPRLPRPRPRPHAEPRP", "Escherichia coli TOP10", 0.315),
    ("RRIRNRPPRLPRPRPRPAFNPRP", "Escherichia coli TOP10", 0.179),
    ("RRIRWRPPRLPRPRPRPCDQPRP", "Escherichia coli TOP10", -0.0328),
    ("RRIRCRPPRLPRPRPRPMDLPRP", "Escherichia coli TOP10", -0.0384),
    ("RRIRNRPPRLPRPRPRPNRHPRP", "Escherichia coli TOP10", -0.17),
    ("RRIRSRPPRLPRPRPRPIAFPRP", "Escherichia coli TOP10", -0.388),
    ("RRIRSRPPRLPRPRPRPSDEPRP", "Escherichia coli TOP10", -0.673),
    ("RRIRMRPPRLPRPRPRPFFGPRP", "Escherichia coli TOP10", -0.0869),
    ("RRIRGRPPRLPRPRPRPNRTPRP", "Escherichia coli TOP10", -0.0769),
    ("RRIRHRPPRLPRPRPRPMTEPRP", "Escherichia coli TOP10", 0.0178),
    ("RRIRRRPPRLPRPRPRPKMVPRP", "Escherichia coli TOP10", 0.105),
    ("RRIRDRPPRLPRPRPRPNSHPRP", "Escherichia coli TOP10", 0.0526),
    ("RRIRSRPPRLPRPRPRPHNNPRP", "Escherichia coli TOP10", -0.751),
    ("RRIRVRPPRLPRPRPRPHLCPRP", "Escherichia coli TOP10", -0.137),
    ("RRIRYRPPRLPRPRPRPQYTPRP", "Escherichia coli TOP10", -1.34),
    ("RRIRMRPPRLPRPRPRPEYFPRP", "Escherichia coli TOP10", -0.109),
    ("RRIRKRPPRLPRPRPRPQTTPRP", "Escherichia coli TOP10", 0.289),
]
